# assay summary: Stability of compound assessed as shelf life measured after preserving compound in amber vial containing 95% CH3CN and 5% H2O followed by drying using N2 stream and later punged-with argon followed by exposure to 4 degC for 24 hrs
# Assay type: physicochemical
assay readout: Stability

// Stability value for C=CC/C=C/Cc1csc(C(C)(C)[C@H](O)C/C=C\C(=C)CCNC(=O)OC)n1 : 3 to 6 weeks

---

# assay summary: Stability of compound assessed as shelf life measured after preserving compound in amber vial containing 95% CH3CN and 5% H2O followed by drying using N2 stream and later punged-with argon in dark desiccator under vacuum for 24 hrs
# Type: physicochemical
assay readout: Stability

The recorded Stability for entry C=CC/C=C/Cc1csc(C(C)(C)[C@H](O)C/C=C\C(=C)CCNC(=O)OC)n1 equals 3 to 6 weeks
